Can you tell me max solve (DMSO) for the items I'm about to list?
# assayMethodText: Maximal solubility of the synthetic peptides in water and in DMSO (sheet Peptide_mixes)
# Assay type: physicochemical
# conditionParameters: in DMSO; number in brackets in the cell
# From the text: Supplement elife-90674-supp3.xlsx, sheet "Peptide_mixes"
Residues, ends and D or L forms follow the SMILES beside them.
Field format: number, assumed mg/mL, no unit text.

Sample CC(C)C[C@H](NC(=O)[C@H](CO)NC(=O)[C@H](CCC(=O)O)NC(=O)CNC(=O)[C@H](CC(=O)O)NC(=O)[C@@H](NC(=O)[C@H](CCC(=O)O)NC(=O)[C@@H]1CCC(=O)N1)[C@@H](C)O)C(=O)N[C@@H](CCCCN)C(=O)N[C@@H](CCCCN)C(=O)N[C@@H](C)C(=O)N[C@@H](CCC(=O)O)C(=O)N[C@@H](CCC(=O)O)C(=O)N[C@@H](CCC(=O)O)C(=O)N[C@@H](Cc1ccccc1)C(=O)N[C@H](C(=O)O)C(C)C [EFV] (HELM PEPTIDE1{[Glp].E.T.D.G.E.S.L.K.K.A.E.E.E.F.V}$$$$V2.0) ; max solve (DMSO) observed: 10

Sample CSCC[C@H](NC(=O)[C@H](CC(C)C)NC(=O)CNC(=O)[C@@H]1CCC(=O)N1)C(=O)N[C@@H](Cc1ccccc1)C(=O)N[C@@H](CCCNC(=N)N)C(=O)N1CCC[C@H]1C(N)=O [FRPa2] (HELM PEPTIDE1{[Glp].G.L.M.F.R.P.[am]}$$$$V2.0) ; max solve (DMSO) observed: 10

###

Can you tell me max solve water for the items I'm about to list?
# assayMethodText: Maximal solubility of the synthetic peptides in water and in DMSO (sheet Peptide_mixes)
# Type: physicochemical
# conditionParameters: in water; number before the bracket in the cell
Residues, ends and D or L forms follow the SMILES beside them.
Field format: number, assumed mg/mL, no unit text.

Sample CC(C)C[C@H](NC(=O)CNC(=O)[C@@H]1CCC(=O)N1)C(=O)N[C@@H](CCCNC(=N)N)C(=O)N[C@@H](Cc1c[nH]c2ccccc12)C(N)=O [LRWa1] (HELM PEPTIDE1{[Glp].G.L.R.W.[am]}$$$$V2.0) ; max solve water observed: 0

Sample CC(C)C[C@@H]1NC(=O)CNC(=O)[C@@H]2CCCN2C(=O)[C@@H]2CCCN2C(=O)[C@@H](NC(=O)[C@@H]2CCC(=O)N2)CSSC[C@@H](C(=O)O)NC(=O)CNC(=O)[C@H](Cc2c[nH]c3ccccc23)NC1=O [GLWGcc] (HELM PEPTIDE1{[Glp].C.P.P.G.L.W.G.C}$PEPTIDE1,PEPTIDE1,2:R3-9:R3$$$V2.0) ; max solve water observed: 2

Sample CC(C)C[C@H](NC(=O)[C@H](CO)NC(=O)[C@H](CCC(=O)O)NC(=O)CNC(=O)[C@H](CC(=O)O)NC(=O)[C@@H](NC(=O)[C@H](CCC(=O)O)NC(=O)[C@@H]1CCC(=O)N1)[C@@H](C)O)C(=O)N[C@@H](CCCCN)C(=O)N[C@@H](CCCCN)C(=O)N[C@@H](C)C(=O)N[C@@H](CCC(=O)O)C(=O)N[C@@H](CCC(=O)O)C(=O)N[C@@H](CCC(=O)O)C(=O)N[C@@H](Cc1ccccc1)C(=O)N[C@H](C(=O)O)C(C)C [EFV] (HELM PEPTIDE1{[Glp].E.T.D.G.E.S.L.K.K.A.E.E.E.F.V}$$$$V2.0) ; max solve water observed: 5

Sample CC(C)[C@H](NC(=O)[C@H](CCCNC(=N)N)NC(=O)[C@H](Cc1ccc(O)cc1)NC(=O)[C@@H](N)Cc1ccccc1)C(N)=O [FYRVa] (H-FYRV-NH2) ; max solve water observed: 2

###

# assayMethodText: Maximal solubility of the synthetic peptides in water and in DMSO (sheet Peptide_mixes)
# Assay type: physicochemical
# conditionParameters: in water; number before the bracket in the cell
Residues, ends and D or L forms follow the SMILES beside them.
reportedMetric: max solve water

Sample CC(C)C[C@H](NC(=O)CNC(=O)[C@@H]1CCCN1C(=O)[C@@H]1CCCN1C(=O)[C@H](CS)NC(=O)[C@@H]1CCC(=O)N1)C(=O)N[C@@H](Cc1c[nH]c2ccccc12)C(=O)NCC(=O)N[C@@H](CS)C(=O)O [GLWG] (HELM PEPTIDE1{[Glp].C.P.P.G.L.W.G.C}$$$$V2.0) ; max solve water observed: 10 (10) mg/ml

Sample CSCC[C@H](NC(=O)[C@H](CC(N)=O)NC(=O)[C@@H]1CCCN1C(=O)[C@H](CCSC)NC(=O)[C@@H]1CCC(=O)N1)C(=O)N[C@H](C(=O)N1CCC[C@H]1C(=O)N[C@@H](Cc1ccccc1)C(=O)N[C@@H](Cc1c[nH]cn1)C(N)=O)C(C)C [PFHa] (HELM PEPTIDE1{[Glp].M.P.N.M.V.P.F.H.[am]}$$$$V2.0) ; max solve water observed: 0 mg/mL

Sample N=C(N)NCCC[C@H](NC(=O)CNC(=O)[C@H](CCC(N)=O)NC(=O)[C@H](CC(=O)O)NC(=O)[C@H](CCC(=O)O)NC(=O)[C@H](CCCNC(=N)N)NC(=O)CNC(=O)[C@H](Cc1ccccc1)NC(=O)[C@H](CCCNC(=N)N)NC(=O)CNC(=O)[C@@H]1CCC(=O)N1)C(=O)N[C@@H](Cc1ccccc1)C(N)=O [RFa1] (HELM PEPTIDE1{[Glp].G.R.F.G.R.E.D.Q.G.R.F.[am]}$$$$V2.0) ; max solve water observed: 5 mg/mL

Sample CC(C)C[C@H](NC(=O)CNC(=O)[C@@H]1CCCN1C(=O)[C@@H]1CCCN1C(=O)[C@@H](N)CS)C(=O)N[C@@H](Cc1c[nH]c2ccccc12)C(=O)N[C@@H](CS)C(N)=O [Am_CCa] (H-CPPGLWC-NH2) ; max solve water observed: 5 mg/mL

Sample CC[C@H](C)[C@H](NC(=O)[C@H](Cc1c[nH]cn1)NC(=O)[C@H](Cc1ccccc1)NC(=O)[C@H](Cc1ccc(O)cc1)NC(=O)[C@H](C)NC(=O)[C@@H]1CCCN1C(=O)[C@@H](NC(=O)[C@H](CC(C)C)NC(=O)[C@H](CC(=O)O)NC(=O)[C@H](CC(C)C)NC(=O)[C@H](Cc1ccc(O)cc1)NC(=O)[C@@H]1CCCN1C(=O)[C@@H]1CCCN1C(=O)[C@@H]1CCC(=O)N1)[C@@H](C)O)C(=O)N[C@@H](CCCNC(=N)N)C(N)=O [HIRa3] (HELM PEPTIDE1{[Glp].P.P.Y.L.D.L.T.P.A.Y.F.H.I.R.[am]}$$$$V2.0) ; max solve water observed: 5 mg/mL

Sample CC(C)C[C@H](NC(=O)[C@H](Cc1ccccc1)NC(=O)[C@H](C)NC(=O)[C@H](CC(=O)O)NC(=O)[C@@H]1CCC(=O)N1)C(=O)N1CCC[C@H]1C(=O)N[C@@H](CCCCN)C(=O)N1CCC[C@H]1C(=O)N[C@@H](CCCNC(=N)N)C(=O)N1CCC[C@H]1C(N)=O [RPa1] (HELM PEPTIDE1{[Glp].D.A.F.L.P.K.P.R.P.[am]}$$$$V2.0) ; max solve water observed: 10 (10) mg/ml

Sample CC[C@H](C)[C@H](NC(=O)[C@H](CC(C)C)NC(=O)[C@@H]1CCC(=O)N1)C(=O)N[C@@H](Cc1ccccc1)C(=O)N[C@@H](CCCNC(=N)N)C(=O)N1CCC[C@H]1C(N)=O [FRPa] (HELM PEPTIDE1{[Glp].L.I.F.R.P.[am]}$$$$V2.0) ; max solve water observed: 5 mg/mL

Sample CC[C@H](C)[C@H](NC(=O)[C@@H]1CCC(=O)N1)C(=O)N[C@H](C(=O)N[C@@H](CCCNC(=N)N)C(=O)N[C@@H](Cc1ccccc1)C(N)=O)[C@@H](C)O [RFa0] (HELM PEPTIDE1{[Glp].I.T.R.F.[am]}$$$$V2.0) ; max solve water observed: 5 (5) mg/ml

Sample CC[C@H](C)[C@H](NC(=O)[C@H](CC[S+](C)[O-])NC(=O)[C@@H]1CCCN1C(=O)[C@@H]1CCCN1C(=O)CN)C(=O)N[C@@H](CCCCN)C(=O)N[C@H](C(=O)N1CCC[C@H]1C(=O)N[C@H](C(=O)N[C@@H](CCCNC(=N)N)C(=O)N[C@@H](Cc1c[nH]cn1)C(N)=O)C(C)C)[C@@H](C)CC (some centres unmarked) [RHa2] (HELM PEPTIDE1{G.P.P.[CS(=O)CC[C@H](N[*:1])C(=O)[*:2]].I.K.I.P.V.R.H.[am]}$$$$V2.0) ; max solve water observed: 5 mg/mL

Sample CSCC[C@H](NC(=O)[C@H](C)NC(=O)[C@@H]1CCC(=O)N1)C(=O)N[C@@H](CCC(N)=O)C(=O)N[C@@H](Cc1c[nH]c2ccccc12)C(=O)NCC(=O)N[C@@H](Cc1c[nH]cn1)C(=O)N[C@@H](CCCCN)C(=O)NCC(=O)N[C@@H](Cc1c[nH]c2ccccc12)C(=O)N[C@@H](C)C(=O)O [GWA1] (HELM PEPTIDE1{[Glp].A.M.Q.W.G.H.K.G.W.A}$$$$V2.0) ; max solve water observed: 0 mg/mL

Sample C[C@@H](O)[C@H](NC(=O)[C@H](Cc1c[nH]cn1)NC(=O)[C@H](Cc1ccccc1)NC(=O)[C@H](Cc1ccc(O)cc1)NC(=O)[C@@H]1CCCN1C(=O)[C@@H]1CCC(=O)N1)C(=O)N[C@@H](CC(=O)O)C(=O)N[C@@H](CC(N)=O)C(=O)N[C@@H](CO)C(=O)N1CCC[C@H]1C(=O)N[C@@H](CC(N)=O)C(=O)N[C@@H](CCCNC(=N)N)C(=O)N[C@@H](Cc1ccccc1)C(N)=O [NRFa] (HELM PEPTIDE1{[Glp].P.Y.F.H.T.D.N.S.P.N.R.F.[am]}$$$$V2.0) ; max solve water observed: 5 (5) mg/ml
